Assay: Cytotoxicity in human EAhy926 cells assessed as viable cells at 1 mM after 48 hrs by MTT assay
Where a SMILES comes first, the peptide text is derived from it. [ ]: non-standard residue; d: D form. dDap = NC[C@@H](N)C(=O)O; Dap = NC[C@H](N)C(=O)O
Please note: viability at 1000 µM exactly at 90% is FALSE. Only values below 90% get TRUE.

# COMPOUND, LABEL_CLASS
measured = [
    ("N=C(N)NN", "FALSE"),
    ("CC[C@H](C)[C@H](NC(=O)[C@@H](N)CN)C(=O)O (H-[Dap]-Ile-OH)", "TRUE"),
    ("NCCC(=O)N[C@@H](Cc1cnc[nH]1)C(=O)O", "FALSE"),
    ("CC(C)C[C@@H](NC(=O)[C@@H](N)CN)C(=O)O", "TRUE"),
    ("NC[C@H](N)C(=O)N[C@@H](Cc1ccccc1)C(=O)O", "TRUE"),
    ("NCC(N)C(=O)O (single isomer, unassigned)", "TRUE"),
    ("NCCCC[C@H](NC(=O)[C@H](N)CN)C(=O)O", "TRUE"),
    ("CCCC[C@H](NC(=O)[C@@H](N)CN)C(=O)O", "FALSE"),
    ("CC(C)[C@H](NC(=O)[C@@H](N)CN)C(=O)O (H-[Dap]-Val-OH)", "FALSE"),
    ("CCCCCCCCCCCCCCCCOC(=O)[C@H](CC(C)C)NC(=O)C(N)CN (single isomer, unassigned)", "TRUE"),
    ("CC(C)C[C@H](NC(=O)[C@@H](N)CN)C(=O)O", "TRUE"),
    ("C[C@@H](NC(=O)[C@H](N)CN)C(=O)O (H-[dDap]-[dA]-OH)", "TRUE"),
    ("CN(C)C(=N)N=C(N)N", "TRUE"),
    ("NC[C@H](N)C(=O)NCC(=O)O (H-[Dap]-Gly-OH)", "TRUE"),
    ("CC(C)(S)C(N)C(=O)O (racemic)", "TRUE"),
]

###

Assay: Cytoprotective activity against MG-induced cytotoxicity in human EAhy926 cells assessed as viable cells at 1 mM after 48 hrs by MTT assay
Conditions: EA.hy 926
Where a SMILES comes first, the peptide text is derived from it. [ ]: non-standard residue; d: D form. Dap = NC[C@H](N)C(=O)O
Please note: viability at 1000 µM exactly at 70% is rule not met. Only values below 70% get rule met.

# COMPOUND, LABEL_CLASS
data = [
    ("Cc1ncc(CO)c(CN)c1O [PYRIDOXAMINE]", "rule met"),
    ("CN(C)C(=N)N=C(N)N [METFORMIN]", "rule met"),
    ("CCCC[C@H](NC(=O)[C@@H](N)CN)C(=O)O", "rule not met"),
    ("NC[C@H](N)C(=O)NCC(=O)O (H-[Dap]-Gly-OH)", "rule met"),
    ("NCCCC[C@H](NC(=O)[C@H](N)CN)C(=O)O", "rule met"),
    ("CC(C)(S)C(N)C(=O)O (racemic) [DL-PENICILLAMINE]", "rule met"),
    ("N=C(N)NN [PIMAGEDINE]", "rule not met"),
    ("CCCCCCCCCCCCCCCCOC(=O)[C@H](CC(C)C)NC(=O)C(N)CN (single isomer, unassigned)", "rule met"),
    ("CC[C@H](C)[C@H](NC(=O)[C@@H](N)CN)C(=O)O (H-[Dap]-Ile-OH)", "rule not met"),
]

###

Assay: Inhibition of alpha-dicarbonyls-induced advanced glycation end product formation assessed as protection against 100 eq. MG-induced insulin degradation at 3.75 mM after 24 hrs by RP-HPLC
Set-up: scale not given: the % may be the effect or the level left
Details: 3750 µM
Where a SMILES comes first, the peptide text is derived from it. [ ]: non-standard residue; d: D form. dDap = NC[C@@H](N)C(=O)O; Dap = NC[C@H](N)C(=O)O
Activity values, listed per item

# COMPOUND, Activity (%)
records = [
    ("CC(C)C[C@H](NC(=O)[C@@H](N)CN)C(=O)O", 87),
    ("CC(C)C[C@@H](NC(=O)[C@H](N)CN)C(=O)O", 84),
    ("NC[C@@H](N)C(=O)N[C@@H](Cc1ccc(C(F)(F)F)cc1)C(=O)O", 74),
    ("CN(C)C(=N)N=C(N)N [METFORMIN]", 11),
    ("NCC(N)C(=O)O (stereo not given)", 98),
    ("CC[C@H](C)[C@H](NC(=O)[C@@H](N)CN)C(=O)O (H-[Dap]-Ile-OH)", 75),
    ("NCCC(=O)N[C@@H](Cc1cnc[nH]1)C(=O)O [CARNOSINE]", 0),
    ("N=C(N)NN [PIMAGEDINE]", 85),
    ("NC[C@@H](N)C(=O)N[C@H](CC(=O)O)C(=O)O", 61),
    ("NC[C@H](N)C(=O)N1CCC[C@H]1C(=O)O (H-[Dap]-Pro-OH)", 77),
    ("N[C@@H](CS)C(=O)O [CYSTEINE]", 69),
    ("CCCCCCCCCCCCCCCCOC(=O)[C@H](CC(C)C)NC(=O)C(N)CN (single isomer, unassigned)", 74),
    ("NCCC(N)C(=O)O (racemic)", 40),
    ("NC[C@@H](N)C(=O)NC(Cc1ccc(F)cc1)C(=O)O (mixture of isomers)", 53),
    ("NC[C@H](N)C(=O)NCC(=O)O (H-[Dap]-Gly-OH)", 67),
    ("CC(C)[C@H](NC(=O)[C@@H](N)CN)C(=O)O (H-[Dap]-Val-OH)", 71),
    ("CCCC[C@H](NC(=O)[C@H](N)CN)C(=O)O", 91),
    ("C[C@@H](NC(=O)[C@H](N)CN)C(=O)O (H-[dDap]-[dA]-OH)", 71),
    ("NC[C@H](N)C(=O)NCCC(=O)O", 69),
    ("NCCCC[C@H](N)C(=O)O [LYSINE]", 0),
    ("CC(C)C[C@H](NC(=O)[C@H](N)CN)C(=O)O", 83),
    ("Cc1ncc(CO)c(CN)c1O [PYRIDOXAMINE]", 14),
    ("N=C(N)NCCC[C@H](N)C(=O)O [ARGININE]", 18),
    ("CC(C)(S)C(N)C(=O)O (racemic) [DL-PENICILLAMINE]", 69),
    ("NC[C@@H](N)C(=O)N[C@H](Cc1ccccc1)C(=O)O", 66),
]

###

Assay: Inhibition of alpha-dicarbonyls-induced advanced glycation end product formation assessed as protection against MG-induced loss of bovine pancreatic RNaseA enzyme activity after 48 hrs […]
Type: physicochemical
Design: concentration or dose not given beside the values
Details: cattle
Where a SMILES comes first, the peptide text is derived from it. [ ]: non-standard residue; d: D form. dDap = NC[C@@H](N)C(=O)O; Dap = NC[C@H](N)C(=O)O
QUANTITY_NAME: Activity

# COMPOUND, QUANTITY_NAME, RESULT
measured = [
    ("NC[C@H](N)C(=O)NCC(=O)O (H-[Dap]-Gly-OH)", "Activity", "86%"),
    ("CC[C@H](C)[C@H](NC(=O)[C@@H](N)CN)C(=O)O (H-[Dap]-Ile-OH)", "Activity", "91%"),
    ("CC(C)C[C@H](NC(=O)[C@@H](N)CN)C(=O)O", "Activity", "94%"),
    ("NCC(N)C(=O)O (stereo not drawn)", "Activity", "20%"),
    ("N=C(N)NN", "Activity", "70%"),
    ("CC(C)[C@H](NC(=O)[C@@H](N)CN)C(=O)O (H-[Dap]-Val-OH)", "Activity", "91%"),
    ("NC[C@@H](N)C(=O)N[C@H](Cc1ccccc1)C(=O)O", "Activity", "70%"),
    ("C[C@@H](NC(=O)[C@H](N)CN)C(=O)O (H-[dDap]-[dA]-OH)", "Activity", "87%"),
]

###

Assay: Cytoprotective activity against MG-induced cytotoxicity in human EAhy926 cells assessed as viable cells at 1 mM after 48 hrs by MTT assay
Details: EA.hy 926
Where a SMILES comes first, the peptide text is derived from it. [ ]: non-standard residue; d: D form. Dap = NC[C@H](N)C(=O)O
viability at 1000 µM values, listed per item

# MOLECULE, viability at 1000 µM
measured = [
    ("NCCC(=O)N[C@@H](Cc1cnc[nH]1)C(=O)O", "54%"),
    ("CC(C)[C@H](NC(=O)[C@@H](N)CN)C(=O)O (H-[Dap]-Val-OH)", "93%"),
    ("NCC(N)C(=O)O (single isomer, unassigned)", "67%"),
    ("NC[C@H](N)C(=O)N[C@@H](Cc1ccccc1)C(=O)O", "67%"),
]
